Recorded values, source PubChem BioAssay.

system: PRMT1 (protein arginine N-methyltransferase 1); assay: PRMT1 binders on small-molecule microarrays, primary screen, biochemical, small-molecule microarray, 635 nm fluorescence (AID 1088); settings: small-molecule microarray binding, higher = more signal;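 note: binding of Prmt1 protein to compounds spotted on small-molecule microarray slides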
Each entry gets Not fulfilled if its composite z-score stays under 1, and Fulfilled if its composite z-score is 1 or above.

CC(=O)C1=CCC(c2ccccc2)N(S(=O)(=O)c2ccc(C)cc2)C1 (configuration not stated): Fulfilled
CCOC(=O)C[C@H]1[C@H](OC(=O)c2ccc(-c3ccccc3)cc2)[C@@H](NC(=O)c2ccc(-c3ccccc3)cc2)c2cc(OCCCO)ccc2N1C(=O)Cc1ccc(OC)cc1: Not fulfilled
COC(=O)[C@@]1(Cc2ccccc2)N=C(c2ccc(OCCCO)cc2)O[C@H]1c1ccccc1N=[N+]=[N-]: Fulfilled
O=C/C=C/c1ccc(Cl)cc1: Not fulfilled
Cc1ccccc1C(O)C1C=CC2C(=O)N(C)C(=O)C2N1Nc1ccccc1 (configuration not stated): Fulfilled

Req: Does the compound `COC(=O)[C@@]1(Cc2ccc(OC)cc2)[C@H]2c3cc(C(=O)N4CCCC4)n(Cc4cc(F)cc5c4OCOC5)c3C[C@H]2CN1C(=O)c1ccccc1` have recorded composite z-score that is 1 or more?
Resp: Not fulfilled

Req: Does the compound `O=C1O[C@@H](c2ccccc2)[C@@H](c2ccccc2)N2[C@@H](c3ccccc3OCCO)[C@]3(C(=O)Nc4ccc(C#CC5(O)CCCCCC5)cc43)[C@@H](C(=O)Nc3nc4ccccc4s3)[C@H]12` have recorded composite z-score that is 1 or more?
Resp: Fulfilled

###

# composite z-score values compiled below
system: Wnt5a (protein binding on small-molecule microarray); assay: Wnt5a binders on small-molecule microarray, primary screen, biophysical, 635/667 nm fluorescence (AID 1142); conditions: 635 nm fluorescence, higher = more signal;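 note: fluorescence read at 667 nm with signal to noise per printed feature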
Just the number, please, no unit attached.

O=C1C2C=CC(C(O)c3cccs3)N(Nc3ccccc3F)C2C(=O)N1c1ccccc1 (stereo not given): 0.13

Turning to the following compound.
// field: composite z-score; key: `COCCOC(=O)N1C(=O)[C@@]2(c3cc(C#CCNC(N)=O)ccc31)[C@H](c1ccc(O)cc1)N1[C@H](c3ccccc3)[C@H](c3ccccc3)OC(=O)[C@H]1[C@@H]2C(=O)Nc1nc2ccccc2s1` ; value = 0.327

###

experiment: E. coli DRC41 culture turbidity changes, primary screen, E. coli filamentation inducer project, strain DRC41, OD650, 48 h (AID 1152);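 note: E. coli MC1000 strain DRC41 lacking acrAB efflux pump and sulA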; details: E. coli DRC41 (acrAB sulA), higher = more signal, called active from +8 up or from −8 down
Each entry gets Not met if its z-score stays under -0.2, and Met if its z-score is -0.2 or above.

# count of solved cases: 3
COCCOC(=O)N1C(=O)[C@@]2(c3cc(C#CCCO)ccc31)[C@H](C(=O)NC[C@H](O)c1ccccc1)[C@H]1C(=O)O[C@H](c3ccccc3)[C@H](c3ccccc3)N1[C@@H]2c1ccc(O)cc1: Met
Cc1c(NC(=O)CC#N)c(=O)n(-c2ccccc2)n1C: Met
C[C@]1(C(=O)NCc2ccccc2)c2ccccc2C(=O)N(Cc2cc(F)cc(C(F)(F)F)c2)[C@H]1c1ccc(CO)cc1: Met

Next, consider the following compound.
Req: Does the compound `CCCN1C(=O)[C@]2(COC(c3ccc(OCCCO)cc3)=N2)Cc2ccccc21` have recorded z-score that is -0.2 or more?
Resp: Not met
